Experiment: In vivo topical administration pharmacokinetics of K173, rabbit (aqueous humor, cornea)
Conditions: aqueous humor, topical or ocular, 5 mg/ml, Group 3 (8 BID doses), topical 5 mg/ml, 30 Min post-last dose, OS, Mean, read-out: K173 Concentrations (ng/mL) in Rabbit Aqueous Humor OS Sample, Mean
Positions of bridges follow the written chain, without caps; N, C: chain ends. Non-standard residues stand in square brackets, D forms with d. Residues, ends and D or L forms follow the SMILES beside them. Triazole bridges read from a SMILES are 1,4-linked. *: point of attachment. Benzoyl(3,5-(OH)2) = O=C(c1cc(O)cc(O)c1)*; Lys(N3) = [N-]=[N+]=NCCCC[C@H](N)C(=O)O; dPhe(4-F) = N[C@H](Cc1ccc(F)cc1)C(=O)O; Nle = CCCC[C@H](N)C(=O)O; Pra = C#CC[C@H](N)C(=O)O
measure: level at 0.5 h (ng/mL)

molecule | result-value
CCCC[C@H](NC(=O)c1cc(O)cc(O)c1)C(=O)N[C@H]1CCCCn2cc(nn2)C[C@@H](C(N)=O)NC(=O)[C@H](Cc2c[nH]c3ccccc23)NC(=O)[C@H](CCCNC(=N)N)NC(=O)[C@@H](Cc2ccc(F)cc2)NC(=O)[C@H](Cc2c[nH]cn2)NC1=O [KR-072] ({Benzoyl(3,5-(OH)2)}-[Nle][Lys(N3)]H[dPhe(4-F)]RW[Pra]-NH2; triazole 2-7) | 8.11

// provenance: patent US20260152527A1
